System: ATP;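 note: ATP exposure 15 min at 22 °C before imaging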
Assay: switch fluorescence ratio, 500 uM ATP over buffer (Cy3 cluster intensity, sum of 5 cycles each) (fold (ratio)); higher = stronger signal-on switching upon ATP binding; sequences stand for … in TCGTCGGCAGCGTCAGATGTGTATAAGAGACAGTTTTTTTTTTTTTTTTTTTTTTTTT…TC
Conditions: aptamer strand: ATP DNA aptamer (quencher-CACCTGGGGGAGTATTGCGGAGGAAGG + anchor), 100 nM annealed; ATP concentration: 500 uM
I'd be grateful if you could share measured switch fluorescence ratio for these entries.
Reply with the value as a number alone.

Prompt: What measured switch fluorescence ratio goes with ATTCAGTCAT ?
Response: 0.99

Prompt: Same question, TTTGTCGTAA this time
Response: 0.999

Prompt: Same question, TTTTGGATGC this time
Response: 1.05

###

System: ATP;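 note: ATP exposure 15 min at 22 °C before imaging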
Experiment: switch fluorescence ratio, 500 uM ATP over buffer (Cy3 cluster intensity, sum of 5 cycles each) (fold (ratio)); higher = stronger signal-on switching upon ATP binding; sequences stand for … in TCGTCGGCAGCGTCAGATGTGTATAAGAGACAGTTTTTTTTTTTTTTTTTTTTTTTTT…TC
Conditions: aptamer strand: ATP DNA aptamer (quencher-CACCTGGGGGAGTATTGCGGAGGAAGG + anchor), 100 nM annealed; ATP concentration: 500 uM
recorded.metric: switch fluorescence ratio
Reply with the value as a number alone.

Prompt: Request - read-out switch fluorescence ratio | tested on ATP | sequence TTTTTCAACC;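 note: ATP exposure 15 min at 22 °C before imaging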
Response: 1.02

Prompt: Same question, GGTGATTTAA this time
Response: 1.01

Prompt: Same question, GTGAAGAAGA this time
Response: 0.991

Prompt: Same question, GGTTTCGCGA this time
Response: 1.07

Prompt: Same question, AGTGGTACTA this time
Response: 0.991

Prompt: Same question, CCGTTTGGCA this time
Response: 1.15

Prompt: Same question, GGCTATCTGT this time
Response: 1

Prompt: Same question, GGGGTACCGG this time
Response: 1.02

Prompt: Same question, GTGTGATGTT this time
Response: 0.99

Prompt: Same question, GTTATTATGT this time
Response: 0.994

Prompt: Same question, ATGTATGTAA this time
Response: 1.01

Prompt: Same question, GATGTTGGAA this time
Response: 0.997

Prompt: Same question, AACGGTCTTT this time
Response: 0.997

Prompt: Same question, TCCCAACGGG this time
Response: 1.01

Prompt: Same question, ATAACGGGGG this time
Response: 1

Prompt: Same question, TTAATTTACT this time
Response: 1.08

Prompt: Same question, TAAGGTGGGT this time
Response: 1

Prompt: Same question, CAGAGTTTGA this time
Response: 0.969

Prompt: Same question, TTGGGCACTG this time
Response: 0.974

Prompt: Same question, CTGGTTTAGC this time
Response: 1

Prompt: Same question, GAGGGGTCAG this time
Response: 1

Prompt: Same question, TAAAAATTGC this time
Response: 1.02

Prompt: Same question, CTGGCACGGA this time
Response: 1

Prompt: Same question, GTGGGGAGTG this time
Response: 1.01

Prompt: Same question, GAAAGGGGGG this time
Response: 1.04

Prompt: Same question, TTTACCTATA this time
Response: 1.02

Prompt: Same question, CTTTTTGACT this time
Response: 1.01

Prompt: Same question, CGAGGGTTTG this time
Response: 0.997

Prompt: Same question, GCGTTGTGGA this time
Response: 1.04

Prompt: Same question, CATGGTACGC this time
Response: 1.06

Prompt: Same question, GATTTTGTGG this time
Response: 0.971

Prompt: Same question, ACACCTAAAC this time
Response: 1.07

Prompt: Same question, AAAAATGCTT this time
Response: 1.02

Prompt: Same question, TCCTAGGTCT this time
Response: 1.01

Prompt: Same question, CGTTTCTTTG this time
Response: 0.966

Prompt: Same question, TTGTCACAGG this time
Response: 1.09

Prompt: Same question, GACATAAGCA this time
Response: 1.03

Prompt: Same question, TAAAAGAACT this time
Response: 1.03

Prompt: Same question, ATTACGGCAC this time
Response: 2.09

Prompt: Same question, AAGGTGGGTT this time
Response: 1.01

Prompt: Same question, TGGAAAATTC this time
Response: 1.02

Prompt: Same question, CCTTAGTTGG this time
Response: 1.02

Prompt: Same question, GCATTTTGGG this time
Response: 0.986

Prompt: Same question, AGAAGTGGGG this time
Response: 0.989

Prompt: Same question, TAGTGGGGCC this time
Response: 1.01

Prompt: Same question, ATCGGGGAGG this time
Response: 1.01

Prompt: Same question, CCAAACGAGT this time
Response: 0.966

Prompt: Same question, GGGGGGTGGG this time
Response: 0.996

Prompt: Same question, GGGATTTCCG this time
Response: 0.992

Prompt: Same question, TTGTCTTTGG this time
Response: 1.01

Prompt: Same question, CGAGGTTCTG this time
Response: 0.97

Prompt: Same question, TAGTTTAGTT this time
Response: 1

Prompt: Same question, CTTAAAGTAT this time
Response: 0.998

Prompt: Same question, TTCGAGTCTT this time
Response: 0.974

Prompt: Same question, TGGTTAAATC this time
Response: 1.03

Prompt: Same question, GGGAAGGTGT this time
Response: 1.1

Prompt: Same question, GACTGGATGG this time
Response: 0.98

Prompt: Same question, TTTGGGCGAG this time
Response: 0.976

Prompt: Same question, GGACTTAGAT this time
Response: 1.02

Prompt: Same question, GTTGGTGTGG this time
Response: 0.998

Prompt: Same question, TATCAAAAGA this time
Response: 1.03

Prompt: Same question, TTTTGTCACT this time
Response: 1.03

Prompt: Same question, GTAGCCCGGG this time
Response: 0.993

Prompt: Same question, GGCGCAACGG this time
Response: 1.05

Prompt: Same question, GTTTTATGGG this time
Response: 0.969

Prompt: Same question, AATTGTGGTT this time
Response: 0.97

Prompt: Same question, AAGAGAGAGC this time
Response: 0.989

Prompt: Same question, TCATGGCACG this time
Response: 1.02

Prompt: Same question, TGTAGACTGA this time
Response: 1.01

Prompt: Same question, GAGCCTGGTT this time
Response: 0.967

Prompt: Same question, TAAGGGCCTT this time
Response: 0.992

Prompt: Same question, TGGCGGTTAG this time
Response: 1.01

Prompt: Same question, TGTTTGTGAT this time
Response: 1

Prompt: Same question, AGAGGCTTAC this time
Response: 1.04

###

I'd be grateful if you could share measured switch fluorescence ratio for these entries.
Tested on: ATP;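 note: ATP exposure 15 min at 22 °C before imaging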
Experiment: switch fluorescence ratio, 500 uM ATP over buffer (Cy3 cluster intensity, sum of 5 cycles each) (fold (ratio)); higher = stronger signal-on switching upon ATP binding; sequences stand for … in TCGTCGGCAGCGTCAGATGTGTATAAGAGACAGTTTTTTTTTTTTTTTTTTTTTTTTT…TC
Conditions: aptamer strand: ATP DNA aptamer (quencher-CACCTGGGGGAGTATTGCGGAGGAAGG + anchor), 100 nM annealed; ATP concentration: 500 uM
Reply with the value as a number alone.

Prompt: What measured switch fluorescence ratio goes with TCTTGAATAA ?
Response: 0.986

Prompt: Same question, GCGGTTTTGT this time
Response: 0.998

Prompt: Same question, CCTGGGGGAT this time
Response: 1.75

Prompt: Same question, TTTTTACGGC this time
Response: 1.02

Prompt: Same question, ATGCTCGCGG this time
Response: 0.983

Prompt: Same question, CAAGTACGGA this time
Response: 1.1

Prompt: Same question, TTTATTTTTT this time
Response: 1

Prompt: Same question, ATATTTGTAT this time
Response: 1

Prompt: Same question, AAATGACGTC this time
Response: 1.01

Prompt: Same question, TTAATAACTT this time
Response: 1.01

Prompt: Same question, AGGGGGGACG this time
Response: 0.915

Prompt: Same question, GGCCCCGGAT this time
Response: 1

Prompt: Same question, TTTTTTTACC this time
Response: 1.01

Prompt: Same question, ATGAAGAGCG this time
Response: 0.994

Prompt: Same question, CGGGCGTTGT this time
Response: 1

###

I'd be grateful if you could share measured switch fluorescence ratio for these entries.
System: ATP;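 note: ATP exposure 15 min at 22 °C before imaging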
Test: switch fluorescence ratio, 500 uM ATP over buffer (Cy3 cluster intensity, sum of 5 cycles each) (fold (ratio)); higher = stronger signal-on switching upon ATP binding; sequences stand for … in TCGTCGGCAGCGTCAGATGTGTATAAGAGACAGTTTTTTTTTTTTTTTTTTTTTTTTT…TC
Settings: aptamer strand: ATP DNA aptamer (quencher-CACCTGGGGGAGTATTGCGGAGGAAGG + anchor), 100 nM annealed; ATP concentration: 500 uM
Reply with the value as a number alone.

Prompt: What measured switch fluorescence ratio goes with TCTCGAGGGA ?
Response: 0.981

Prompt: Same question, ATGTCGTGGC this time
Response: 1

Prompt: Same question, ATTAGGATGT this time
Response: 0.995

Prompt: Same question, CATTTGGAAT this time
Response: 1.7

Prompt: Same question, TTCCCGCGTA this time
Response: 1.19

Prompt: Same question, AATAGTGGTT this time
Response: 1

Prompt: Same question, GTTAAATTAG this time
Response: 0.987

Prompt: Same question, ATGCCCGGGC this time
Response: 0.988

Prompt: Same question, AAGTTGTTTC this time
Response: 0.988

Prompt: Same question, TTGGGCATGG this time
Response: 1.02

Prompt: Same question, GGGGACTTGG this time
Response: 1

Prompt: Same question, TGCGGGGCAG this time
Response: 1.04

Prompt: Same question, CGCGTAAAAT this time
Response: 1.04

Prompt: Same question, TGTTTGGGTG this time
Response: 1.08

Prompt: Same question, AATCGTTAAG this time
Response: 0.97

Prompt: Same question, GGAGGGTGTC this time
Response: 0.988
